Target: Serine/threonine-protein kinase B-raf (Homo sapiens) (UniProt P15056)
Sequence (P15056 whole entry): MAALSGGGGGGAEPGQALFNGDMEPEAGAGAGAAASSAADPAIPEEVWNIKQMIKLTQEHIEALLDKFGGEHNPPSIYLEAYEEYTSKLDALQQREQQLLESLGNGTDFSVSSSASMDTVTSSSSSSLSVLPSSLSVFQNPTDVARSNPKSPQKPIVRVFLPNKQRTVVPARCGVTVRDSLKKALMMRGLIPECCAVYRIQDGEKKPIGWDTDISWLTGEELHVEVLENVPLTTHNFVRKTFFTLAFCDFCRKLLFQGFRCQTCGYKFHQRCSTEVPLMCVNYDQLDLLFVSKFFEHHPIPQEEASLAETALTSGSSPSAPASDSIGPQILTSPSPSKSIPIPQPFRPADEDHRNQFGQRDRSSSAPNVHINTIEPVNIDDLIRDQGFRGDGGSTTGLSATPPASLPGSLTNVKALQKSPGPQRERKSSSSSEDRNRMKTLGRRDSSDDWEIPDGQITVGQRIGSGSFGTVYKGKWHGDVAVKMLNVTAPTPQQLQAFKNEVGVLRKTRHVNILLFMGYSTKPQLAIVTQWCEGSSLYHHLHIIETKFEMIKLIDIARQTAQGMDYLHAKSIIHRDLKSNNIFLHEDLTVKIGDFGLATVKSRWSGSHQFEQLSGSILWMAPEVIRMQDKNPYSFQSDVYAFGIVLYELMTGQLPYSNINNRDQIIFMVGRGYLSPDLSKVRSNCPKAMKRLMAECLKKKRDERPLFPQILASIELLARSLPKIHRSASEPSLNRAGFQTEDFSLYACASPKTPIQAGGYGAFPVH
Assay: Inhibition of recombinant human GST-tagged full length BRAF expressed in baculovirus expression system at 1 uM using FAM-labeled peptide as substrate after 10 mins by mobility shift assay relative to control
recordedEndpoint: inhibition (%)
Express it in %; write the number only.

Worked examples follow.
INSERT INTO results (structurenotation, recordedendpoint, measuredresult) VALUES
  ('COc1ccc(Nc2cc(NC(=O)c3ccccc3)ncn2)cc1', 'inhibition', 16.6),
  ('O=C(O)CCCC(=O)Nc1cc(Nc2cccc(Cl)c2)ncn1', 'inhibition', 79.3),
  ('COc1cccc(Nc2cc(NC(=O)CCCC(=O)O)ncn2)c1', 'inhibition', 11.3),
  ('O=C(O)CCCC(=O)Nc1cc(N2CCOCC2)ncn1', 'inhibition', 16.7),
  ('COc1cccc(Nc2cc(Nc3cc(OC)ccc3OC)ncn2)c1', 'inhibition', 47.5);

Qu. inhibition for CCOC(=O)c1ccc(Nc2cc(NC(=O)CCCC(=O)O)ncn2)cc1 ?
Ans. 12.7

---

Assay: MRT (0 to t) in Sprague-Dawley rat at 30 mg/kg, po by UPLC-MS/MS analysis
Type: ADME, organism-based
Details: in vivo
recordedEndpoint: MRT last (h)
Express it in h; write the number only.

Qu. MRT last for COc1cccc(Nc2cc(Nc3cc(OC)ccc3OC)ncn2)c1 ?
Ans. 6.66

---

Biological target: Epidermal growth factor receptor (Homo sapiens, UniProt P00533, DEL747/DEL747-750)
Sequence (P00533 with tags, fused parts or gaps DEL747/DEL747-750 limits assumed): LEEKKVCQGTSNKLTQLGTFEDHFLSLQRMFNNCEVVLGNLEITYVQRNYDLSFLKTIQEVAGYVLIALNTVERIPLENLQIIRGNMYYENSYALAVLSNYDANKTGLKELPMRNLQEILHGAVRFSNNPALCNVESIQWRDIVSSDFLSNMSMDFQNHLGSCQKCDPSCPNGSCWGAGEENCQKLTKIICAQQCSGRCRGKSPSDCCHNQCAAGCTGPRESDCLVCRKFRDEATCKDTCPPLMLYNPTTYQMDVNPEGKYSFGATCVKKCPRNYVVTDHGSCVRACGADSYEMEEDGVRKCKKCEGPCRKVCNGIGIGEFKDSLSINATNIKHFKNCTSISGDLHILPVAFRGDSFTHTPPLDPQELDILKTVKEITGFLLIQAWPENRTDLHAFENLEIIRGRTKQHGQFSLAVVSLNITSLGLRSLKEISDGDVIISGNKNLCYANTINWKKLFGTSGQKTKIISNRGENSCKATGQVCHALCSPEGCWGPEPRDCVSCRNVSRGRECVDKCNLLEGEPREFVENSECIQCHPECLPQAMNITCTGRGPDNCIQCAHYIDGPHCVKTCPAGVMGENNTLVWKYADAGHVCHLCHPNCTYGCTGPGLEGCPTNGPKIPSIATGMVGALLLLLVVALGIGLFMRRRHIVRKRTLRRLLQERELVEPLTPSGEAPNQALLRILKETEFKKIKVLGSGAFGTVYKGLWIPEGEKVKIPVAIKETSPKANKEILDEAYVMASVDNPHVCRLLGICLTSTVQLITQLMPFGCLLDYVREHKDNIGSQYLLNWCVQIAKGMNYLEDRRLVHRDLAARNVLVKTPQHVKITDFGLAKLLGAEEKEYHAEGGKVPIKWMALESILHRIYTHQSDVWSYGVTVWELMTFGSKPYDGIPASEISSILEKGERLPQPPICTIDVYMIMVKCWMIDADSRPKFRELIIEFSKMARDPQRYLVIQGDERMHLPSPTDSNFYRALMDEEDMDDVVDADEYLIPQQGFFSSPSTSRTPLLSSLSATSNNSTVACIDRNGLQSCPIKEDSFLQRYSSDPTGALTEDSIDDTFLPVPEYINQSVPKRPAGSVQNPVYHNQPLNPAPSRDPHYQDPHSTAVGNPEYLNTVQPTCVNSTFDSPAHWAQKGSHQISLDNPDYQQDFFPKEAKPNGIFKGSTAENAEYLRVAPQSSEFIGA
Experiment: Inhibition of N-terminal GST-tagged human EGFR del 747-750 mutant cytoplasmic domain expressed in baculovirus expression system using FAM-labeled peptide as substrate after 10 mins by mobility shift assay
recordedEndpoint: pIC50
Note on pIC50: it is the negative log10 of concentration, concentration in mol/L.

Worked examples follow.
INSERT INTO assay_data (structurenotation, measuredresult) VALUES
  ('CCOc1ccc(Nc2cc(NC(=O)c3ccccc3)ncn2)cc1', 6.12),
  ('O=C(O)CCCC(=O)Nc1cc(Nc2ccccc2)ncn1', 6.98),
  ('CCOC(=O)CCC(=O)Nc1cc(Nc2cccc(Br)c2)ncn1', 6.03),
  ('O=C(Nc1cc(Nc2ccc(Cl)cc2)ncn1)c1ccc(F)cc1', 5.85),
  ('COc1ccc(OC)c(Nc2cc(Nc3ccc(S(N)(=O)=O)cc3)ncn2)c1', 6.33);

Qu. pIC50 for O=C(O)CCC(=O)Nc1cc(Nc2ccc(Cl)cc2)ncn1 ?
Ans. 6.10

Qu. Likewise for COc1cccc(Nc2cc(Nc3cccc(Cl)c3)ncn2)c1 ?
Ans. 6.01

Qu. Likewise for COc1cccc(Nc2cc(NC(=O)CCCC(=O)O)ncn2)c1 ?
Ans. 7.92

Qu. Likewise for COc1ccc(Nc2cc(NC(=O)c3ccccc3)ncn2)cc1 ?
Ans. 7.59

Qu. Likewise for O=C(Nc1cc(N2CCOCC2)ncn1)c1ccc(F)cc1 ?
Ans. 7.20

Qu. Likewise for CCOC(=O)c1ccc(Nc2cc(Nc3cccc(OC)c3)ncn2)cc1 ?
Ans. 5.93

Qu. Likewise for Clc1ccc(Nc2cc(Nc3cccc(Cl)n3)ncn2)cc1 ?
Ans. 6.64

Qu. Likewise for COc1ccc(OC)c(Nc2cc(NCCc3cccs3)ncn2)c1 ?
Ans. 6.99

---

Target: Proto-oncogene tyrosine-protein kinase Src (Homo sapiens) (UniProt P12931)
Sequence (P12931 2-536 limits assumed): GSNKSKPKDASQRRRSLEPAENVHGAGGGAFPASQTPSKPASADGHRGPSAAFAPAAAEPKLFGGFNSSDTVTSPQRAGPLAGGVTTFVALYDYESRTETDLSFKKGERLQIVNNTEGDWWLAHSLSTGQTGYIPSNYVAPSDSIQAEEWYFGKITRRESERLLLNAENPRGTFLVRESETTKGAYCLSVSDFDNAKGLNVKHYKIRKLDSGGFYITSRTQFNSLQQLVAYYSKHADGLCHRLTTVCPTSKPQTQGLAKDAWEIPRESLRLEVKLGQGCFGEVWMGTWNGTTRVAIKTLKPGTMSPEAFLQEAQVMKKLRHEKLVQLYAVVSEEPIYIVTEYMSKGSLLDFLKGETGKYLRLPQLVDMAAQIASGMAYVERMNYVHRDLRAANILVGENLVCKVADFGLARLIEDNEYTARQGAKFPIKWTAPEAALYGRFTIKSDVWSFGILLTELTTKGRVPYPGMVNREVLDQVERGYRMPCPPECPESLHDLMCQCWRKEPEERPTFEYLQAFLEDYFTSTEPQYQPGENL
Assay: Inhibition of N-terminal GST-tagged full length human SRC cytoplasmic domain (1 to 536 residues) expressed in baculovirus expression system at 1 uM using FAM-labeled peptide as substrate after 10 mins by mobility shift assay relative to control
recordedEndpoint: inhibition (%)
Express it in %; write the number only.

Worked examples follow.
INSERT INTO results (structurenotation, measuredresult) VALUES
  ('COc1ccc(Nc2cc(NC(=O)c3ccccc3)ncn2)cc1', 27.7),
  ('COc1cccc(Nc2cc(NC(=O)CCCC(=O)O)ncn2)c1', 16.6),
  ('CCOC(=O)c1ccc(Nc2cc(NC(=O)CCCC(=O)O)ncn2)cc1', 11.4),
  ('O=C(O)CCCC(=O)Nc1cc(N2CCOCC2)ncn1', 11.7),
  ('O=C(O)CCCC(=O)Nc1cc(Nc2cccc(Cl)c2)ncn1', 83.7);

Qu. inhibition for COc1cccc(Nc2cc(Nc3cc(OC)ccc3OC)ncn2)c1 ?
Ans. 33.2
